Item-by-item account of IC50
# Measured target: Plasmepsin II (Plasmodium falciparum)
# Sequence (P46925 whole entry): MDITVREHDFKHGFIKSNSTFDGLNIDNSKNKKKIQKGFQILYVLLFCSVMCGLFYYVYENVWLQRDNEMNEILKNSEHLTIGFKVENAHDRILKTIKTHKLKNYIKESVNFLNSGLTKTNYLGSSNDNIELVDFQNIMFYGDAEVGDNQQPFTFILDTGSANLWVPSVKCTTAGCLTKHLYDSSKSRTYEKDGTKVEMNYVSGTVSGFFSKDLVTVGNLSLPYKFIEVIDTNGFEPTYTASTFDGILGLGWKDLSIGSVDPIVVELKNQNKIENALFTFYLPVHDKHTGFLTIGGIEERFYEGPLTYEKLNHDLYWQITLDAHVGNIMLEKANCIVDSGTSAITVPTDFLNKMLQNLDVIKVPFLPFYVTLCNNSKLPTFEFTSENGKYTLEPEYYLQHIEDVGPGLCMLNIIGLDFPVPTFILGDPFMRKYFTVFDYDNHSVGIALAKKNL
# Protocol text: Inhibition of Plasmodium falciparum plasmepsin-2 using DABCYL-Glu-Arg-Nle-Phe-Leu-Ser-Phe-Pro-EDANS as substrate preincubated for 30 mins followed by substrate addition measured every 1 min within 8 to 15 mins by FRET assay
Result type: IC50 (nM)

| Compound | Result type | Numeric result |
| --- | --- | --- |
| Nc1nc2cc(-c3ccccc3)cc(-c3cccc(C(=O)O)c3)c2c(=O)n1CC1CCCO1 (racemic) | IC50 | 500 |
| CCCCCc1ccc(-c2cc(CCC(=O)O)c3c(=O)n(CC4CCCO4)c(N)nc3c2)cc1 (racemic) | IC50 | 27 |
| CCCCCCCCc1cc(CCC(=O)O)c2c(=O)n(CC3CCCO3)c(N)nc2c1 (racemic) | IC50 | 22 |
| Nc1nc2cc(-c3ccc(CCCc4ccccc4)cc3)ccc2c(=O)n1CC1CCCO1 (racemic) | IC50 | 700 |
| Nc1nc2cc(-c3ccccc3)cc(-c3ccncc3)c2c(=O)n1CC1CCCO1 (racemic) | IC50 | 1000 |
| Nc1nc2cc(-c3ccccc3)cc(-c3ccc(C(=O)O)cc3)c2c(=O)n1C[C@@H]1CC[C@H](c2ccccc2)O1 | IC50 | 280 |
| Nc1nc2cc(-c3ccccc3)cc(-c3cccnc3)c2c(=O)n1CC1CCCO1 (racemic) | IC50 | 480 |
| Nc1nc2cc(-c3ccc(CCCc4ccccc4)cc3)cc(CCC(=O)O)c2c(=O)n1CC1CCCO1 (racemic) | IC50 | 80 |
| CCCCCc1ccc(-c2cc(-c3ccc(C(=O)O)cc3)c3c(=O)n(CC4CCCO4)c(N)nc3c2)cc1 (racemic) | IC50 | 23 |
| NC(=O)c1ccc(-c2cc(-c3ccccc3)cc3nc(N)n(CC4CCCO4)c(=O)c23)cc1 (racemic) | IC50 | 600 |
| CCCCCc1ccc(-c2ccc3c(=O)n(CC4CCCO4)c(N)nc3c2)cc1 (racemic) | IC50 | 75 |
| Nc1cccc(-c2cc(-c3ccccc3)cc3nc(N)n(CC4CCCO4)c(=O)c23)c1 (racemic) | IC50 | 820 |
| Nc1nc2cc(-c3ccccc3)cc(-c3ccc(C(=O)O)cc3)c2c(=O)n1CC1CCCO1 (racemic) | IC50 | 330 |

---

# Measured target: Plasmepsin 4 (Plasmodium falciparum)
# Sequence (Q17SB2 whole entry): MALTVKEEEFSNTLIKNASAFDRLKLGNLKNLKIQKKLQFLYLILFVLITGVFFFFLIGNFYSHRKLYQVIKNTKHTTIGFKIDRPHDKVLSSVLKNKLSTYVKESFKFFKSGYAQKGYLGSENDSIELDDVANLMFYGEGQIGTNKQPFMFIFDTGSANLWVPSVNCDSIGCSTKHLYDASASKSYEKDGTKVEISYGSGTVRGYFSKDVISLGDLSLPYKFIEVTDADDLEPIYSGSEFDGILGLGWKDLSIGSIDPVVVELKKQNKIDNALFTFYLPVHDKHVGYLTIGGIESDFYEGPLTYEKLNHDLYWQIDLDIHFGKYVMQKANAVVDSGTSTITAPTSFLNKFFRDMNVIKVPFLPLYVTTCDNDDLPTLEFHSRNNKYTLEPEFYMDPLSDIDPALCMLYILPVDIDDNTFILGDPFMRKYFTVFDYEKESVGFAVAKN
One threshold, 100 nM, splits the recorded IC50 values: lower ones are yes (1), equal or higher ones are no (0).

| Compound | Cat |
| --- | --- |
| NC(=O)c1ccc(-c2cc(-c3ccccc3)cc3nc(N)n(CC4CCCO4)c(=O)c23)cc1 (racemic) | no (0) |
| Nc1nc2cc(-c3ccccc3)cc(-c3ccncc3)c2c(=O)n1CC1CCCO1 (racemic) | no (0) |
| Nc1nc2cc(-c3ccc(CCCc4ccccc4)cc3)cc(CCC(=O)O)c2c(=O)n1CC1CCCO1 (racemic) | yes (1) |
| CCCCCCCCc1cc(CCC(=O)O)c2c(=O)n(CC3CCCO3)c(N)nc2c1 (racemic) | no (0) |
| Nc1nc2cc(-c3ccccc3)cc(-c3ccc(C(=O)O)cc3)c2c(=O)n1C[C@@H]1CC[C@H](c2ccccc2)O1 | no (0) |
| Nc1nc2cc(-c3ccccc3)cc(-c3ccc(C(=O)O)cc3)c2c(=O)n1CC1CCCO1 (racemic) | no (0) |

---

Item-by-item account of pIC50
# Measured target: Plasmepsin I (Plasmodium falciparum, UniProt P39898)
# Sequence (P39898 whole entry): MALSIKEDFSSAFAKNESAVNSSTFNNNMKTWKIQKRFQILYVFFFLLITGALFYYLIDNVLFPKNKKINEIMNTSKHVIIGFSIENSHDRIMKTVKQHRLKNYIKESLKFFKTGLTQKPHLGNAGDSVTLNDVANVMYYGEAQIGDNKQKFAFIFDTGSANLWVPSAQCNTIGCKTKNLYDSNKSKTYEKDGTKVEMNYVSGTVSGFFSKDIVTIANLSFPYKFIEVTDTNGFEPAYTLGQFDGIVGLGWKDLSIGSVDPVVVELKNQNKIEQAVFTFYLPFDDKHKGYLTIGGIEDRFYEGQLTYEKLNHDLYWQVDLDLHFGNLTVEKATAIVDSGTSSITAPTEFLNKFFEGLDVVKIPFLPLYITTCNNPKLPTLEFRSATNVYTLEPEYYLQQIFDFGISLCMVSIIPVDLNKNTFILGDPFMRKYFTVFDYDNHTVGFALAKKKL
# Protocol text: Inhibition of Plasmodium falciparum plasmepsin-1 using DABCYL-Glu-Arg-Nle-Phe-Leu-Ser-Phe-Pro-EDANS as substrate preincubated for 30 mins followed by substrate addition measured every 1 min within 8 to 15 mins by FRET assay
pIC50: −log10 of the molar value.

| Compound | Measured target | pIC50 |
| --- | --- | --- |
| Nc1nc2cc(-c3ccccc3)cc(-c3ccc(C(=O)O)cc3)c2c(=O)n1C[C@@H]1CC[C@H](c2ccccc2)O1 | Plasmepsin I (Plasmodium falciparum, UniProt P39898) | 6.22 |
| Nc1cccc(-c2cc(-c3ccccc3)cc3nc(N)n(CC4CCCO4)c(=O)c23)c1 (racemic) | Plasmepsin I (Plasmodium falciparum, UniProt P39898) | 5.70 |
| CCCCCc1ccc(-c2cc(-c3ccc(C(=O)O)cc3)c3c(=O)n(CC4CCCO4)c(N)nc3c2)cc1 (racemic) | Plasmepsin I (Plasmodium falciparum, UniProt P39898) | 5.62 |
| Nc1nc2cc(-c3ccc(CCCc4ccccc4)cc3)ccc2c(=O)n1CC1CCCO1 (racemic) | Plasmepsin I (Plasmodium falciparum, UniProt P39898) | 5.89 |
| NC(=O)c1ccc(-c2cc(-c3ccccc3)cc3nc(N)n(CC4CCCO4)c(=O)c23)cc1 (racemic) | Plasmepsin I (Plasmodium falciparum, UniProt P39898) | 5.47 |
| Nc1nc2cc(-c3ccc(CCCc4ccccc4)cc3)cc(CCC(=O)O)c2c(=O)n1CC1CCCO1 (racemic) | Plasmepsin I (Plasmodium falciparum, UniProt P39898) | 6.13 |
| Nc1nc2cc(-c3ccccc3)cc(-c3ccncc3)c2c(=O)n1CC1CCCO1 (racemic) | Plasmepsin I (Plasmodium falciparum, UniProt P39898) | 5.30 |
| Nc1nc2cc(-c3ccccc3)cc(-c3cccnc3)c2c(=O)n1CC1CCCO1 (racemic) | Plasmepsin I (Plasmodium falciparum, UniProt P39898) | 5.52 |

---

Item-by-item account of solubility at 16 h
# Protocol text: Solubility of the compound in Tris-buffer at pH 7.4 after 16 hrs by HPLC method
# Format: physicochemical
# Conditions: Tris buffer, pH 7.4

| Compound | Reading qualifier | solubility at 16 h (µg/mL) |
| --- | --- | --- |
| CCCCCc1ccc(-c2cc(CCC(=O)O)c3c(=O)n(CC4CCCO4)c(N)nc3c2)cc1 (racemic) | = | 0.1 |
| Nc1nc2cc(-c3ccc(CCCc4ccccc4)cc3)ccc2c(=O)n1C[C@@H]1CC[C@H](c2ccccc2)O1 | < | 0.01 |
| CCCCCc1ccc(-c2ccc3c(=O)n(C[C@@H]4CC[C@H](c5ccccc5)O4)c(N)nc3c2)cc1 | < | 0.01 |
| CCCCCc1ccc(-c2cc(-c3ccc(C(=O)O)cc3)c3c(=O)n(CC4CCCO4)c(N)nc3c2)cc1 (racemic) | = | 0.03 |

---

# Measured target: Cathepsin D (Homo sapiens)
# Sequence (P07339 65-162 limits assumed): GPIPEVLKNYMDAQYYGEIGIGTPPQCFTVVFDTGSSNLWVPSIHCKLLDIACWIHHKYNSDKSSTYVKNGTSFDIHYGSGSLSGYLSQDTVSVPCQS
# Sequence (P07339 169-412 limits assumed): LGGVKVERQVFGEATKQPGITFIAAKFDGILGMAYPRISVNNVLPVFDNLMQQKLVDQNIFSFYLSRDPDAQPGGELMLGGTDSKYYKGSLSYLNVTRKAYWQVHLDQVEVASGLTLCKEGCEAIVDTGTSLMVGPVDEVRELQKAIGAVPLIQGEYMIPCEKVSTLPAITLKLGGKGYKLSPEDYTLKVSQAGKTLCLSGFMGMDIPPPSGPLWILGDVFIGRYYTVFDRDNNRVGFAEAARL
pIC50: −log10 of the molar value.
Item-by-item account of pIC50

| Molecule | Reading qualifier | pIC50 |
| --- | --- | --- |
| CCCCCc1ccc(-c2cc(CCC(=O)O)c3c(=O)n(CC4CCCO4)c(N)nc3c2)cc1 (racemic) | = | 4.68 |
| Oc1ccc(/C=C/c2cc(O)cc(O)c2)cc1 | = | 3.86 |
| CCCCCCCCc1cc(CCC(=O)O)c2c(=O)n(CC3CCCO3)c(N)nc2c1 (racemic) | = | 6.37 |
| Nc1nc2cc(-c3ccccc3)cc(-c3cccnc3)c2c(=O)n1CC1CCCO1 (racemic) | = | 4.15 |
| Nc1nc2cc(-c3ccc(CCCc4ccccc4)cc3)ccc2c(=O)n1CC1CCCO1 (racemic) | < | 4.00 |

---

pIC50: −log10 of the molar value.
Cathepsin D (Homo sapiens) measurements of pIC50, listed per entry.

| Compound | Measured target | Reading qualifier | pIC50 |
| --- | --- | --- | --- |
| Nc1nc2cc(-c3ccccc3)cc(-c3ccc(C(=O)O)cc3)c2c(=O)n1C[C@@H]1CC[C@H](c2ccccc2)O1 | Cathepsin D (Homo sapiens) | = | 4.70 |
| Nc1nc2cc(-c3ccc(CCCc4ccccc4)cc3)cc(CCC(=O)O)c2c(=O)n1CC1CCCO1 (racemic) | Cathepsin D (Homo sapiens) | = | 4.89 |
| NC(=O)c1ccc(-c2cc(-c3ccccc3)cc3nc(N)n(CC4CCCO4)c(=O)c23)cc1 (racemic) | Cathepsin D (Homo sapiens) | < | 4.00 |
| Nc1nc2cc(-c3ccccc3)cc(-c3ccncc3)c2c(=O)n1CC1CCCO1 (racemic) | Cathepsin D (Homo sapiens) | < | 4.00 |
| Nc1nc2cc(-c3ccccc3)cc(-c3cccc(C(=O)O)c3)c2c(=O)n1CC1CCCO1 (racemic) | Cathepsin D (Homo sapiens) | = | 4.01 |
| CCCCCc1ccc(-c2ccc3c(=O)n(CC4CCCO4)c(N)nc3c2)cc1 (racemic) | Cathepsin D (Homo sapiens) | = | 5.49 |
| Nc1cccc(-c2cc(-c3ccccc3)cc3nc(N)n(CC4CCCO4)c(=O)c23)c1 (racemic) | Cathepsin D (Homo sapiens) | = | 4.03 |
| Nc1nc2cc(-c3ccccc3)cc(-c3ccc(C(=O)O)cc3)c2c(=O)n1CC1CCCO1 (racemic) | Cathepsin D (Homo sapiens) | = | 4.00 |
| CCCCCc1ccc(-c2cc(-c3ccc(C(=O)O)cc3)c3c(=O)n(CC4CCCO4)c(N)nc3c2)cc1 (racemic) | Cathepsin D (Homo sapiens) | = | 4.54 |
